Form field: Abs.max., second of two maxima (absorption maximum) (one value per entry).
Assay: Absorption maximum after colour development in a photographic silver halide layer according to Use Example I
Type: physicochemical
Settings: pyrazolone coupling agents
Returns: string containing the number followed by the unit.

Use the examples below as a reference point.
>>> print(df.to_string())
                               query_smiles  assay_value
0  CCCCOP(=O)(CCCOc1cc(OCCCP(=O)(OCCCC)OCCCC)cc(C(=O)Nc2cccc(C(=O)NC3=NN(c4c(C)cc(C)cc4Cl)C(=O)C3)c2)c1)OCCCC       535 nm
1  CCOP(=O)(CCCOc1cc(OCCCP(=O)(OCC)OCC)cc(C(=O)NC2=NN(c3c(Cl)cc(Cl)cc3Cl)C(=O)C2)c1)OCC       540 nm
2  CCCCOP(=O)(CCCOc1cc(OCCCP(=O)(OCCCC)OCCCC)cc(C(=O)Nc2cccc(C(=O)NC3=NN(c4c(Cl)cc(OC)cc4Cl)C(=O)C3)c2)c1)OCCCC       540 nm
3  CC(C)OP(=O)(CCCCCOc1cccc(C(=O)Nc2cccc(C(=O)NC3=NN(c4ccccc4)C(=O)C3)c2)c1)OC(C)C       532 nm

Entry CCOP(=O)(CCCCCOc1cccc(C(=O)NC2=NN(c3c(Cl)cc(Cl)cc3Cl)C(=O)C2)c1)OCC has what Abs.max., second of two maxima (absorption maximum)?
537 nm

Entry CCOP(=O)(CCCCCOc1cccc(C(=O)Nc2cccc(C(=O)NC3=NN(c4c(Cl)cc(Cl)cc4Cl)C(=O)C3)c2)c1)OCC has what Abs.max., second of two maxima (absorption maximum)?
544 nm
